This collection of values is drawn from PubChem BioAssay (Tox21).

Target: Estrogen receptor (Homo sapiens) (UniProt P03372)
Sequence (P03372 whole entry, looked up): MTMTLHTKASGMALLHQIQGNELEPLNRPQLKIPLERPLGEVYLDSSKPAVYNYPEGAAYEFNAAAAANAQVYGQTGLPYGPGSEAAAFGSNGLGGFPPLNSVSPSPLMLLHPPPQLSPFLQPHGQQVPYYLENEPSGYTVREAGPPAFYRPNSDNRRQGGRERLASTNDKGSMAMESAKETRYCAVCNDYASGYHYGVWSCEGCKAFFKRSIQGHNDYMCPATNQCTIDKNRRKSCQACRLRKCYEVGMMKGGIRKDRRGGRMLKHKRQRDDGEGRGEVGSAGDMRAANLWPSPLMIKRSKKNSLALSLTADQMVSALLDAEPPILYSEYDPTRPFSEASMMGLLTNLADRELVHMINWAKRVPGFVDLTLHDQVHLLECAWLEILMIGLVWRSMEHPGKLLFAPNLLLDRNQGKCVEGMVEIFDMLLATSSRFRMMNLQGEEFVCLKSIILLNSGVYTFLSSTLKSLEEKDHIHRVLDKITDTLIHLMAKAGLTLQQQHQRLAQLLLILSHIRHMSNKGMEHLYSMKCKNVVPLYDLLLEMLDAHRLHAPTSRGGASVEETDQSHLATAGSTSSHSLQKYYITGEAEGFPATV
Experiment: qHTS assay to identify small molecule agonists of the estrogen receptor alpha (ER-alpha) signaling pathway using the BG1 cell line (AID 743079); also: nearly all actives have a fitted effect of over 20% in size
Settings: BG1Luc4E2 cells, ERE-luciferase agonist, 22 h
Records with an inconclusive call do not appear. Active and inactive are the calls of the source. Calls follow the shape of the dose curve; as a rule, active = well fitted activation curve with a large enough effect in the repeat runs; inconclusive = weak or mixed curves, or effect the other way; inactive = no such curve, though single readings can be large or run the other way.
Your answer must be one of the following: active, inactive

* NCc1ccccc1CC(=O)N[C@@H]1C(=O)N2C(C(=O)O)=C(CSc3nnnn3CC(=O)O)CS[C@H]12 | inactive
* COC(=O)C1=C(C#N)NC(C)=C(C(=O)OC(C)C)C1c1cccc([N+](=O)[O-])c1 (centres undefined) | inactive
* C=CCSSSCC=C | active
* CC(CN(C)C)CN1c2ccccc2S(=O)(=O)c2ccccc21 (centres undefined) | inactive
* CCCCCCCCCCCCCCCCCC(=O)OCCO | active
* Nc1c(Br)cc(Br)cc1CNC1CCC(O)CC1 (centres undefined) | inactive
* CC1(C)[C@@H]2CC[C@@]1(C)[C@H](OC(=O)CSC#N)C2 | inactive
* COC1=C(C(=O)O)N2C(=O)[C@@H](NC(=O)[C@H](N)C3=CCC=CC3)[C@H]2SC1 | inactive
* CC(=O)O[C@H]1CC[C@@]2(C)C(=CC[C@@H]3[C@@H]2CC[C@]2(C)C(c4cccnc4)=CC[C@@H]32)C1 | active
* CCC(=O)c1ccc2c(c1)N(CCCN1CCN(CCO)CC1)c1ccccc1S2 | inactive

Challenge: Could you check what this test reported for CC(=O)O[C@]1(C(C)=O)CC[C@H]2[C@@H]3CCC4=CC(=O)CC[C@]4(C)[C@@]3(F)[C@@H](O)C[C@@]21C ?
Response given: active

Challenge: Could you check what this test reported for CC(C)CN(C[C@@H](OP(=O)(O)O)[C@H](Cc1ccccc1)NC(=O)O[C@H]1CCOC1)S(=O)(=O)c1ccc(N)cc1 ?
Response given: inactive

Challenge: Could you check what this test reported for C[N+](C)(CCCCCC[N+](C)(C)C1c2ccccc2-c2ccccc21)C1c2ccccc2-c2ccccc21 ?
Response given: inactive

Challenge: Could you check what this test reported for CN(C(=O)CO)c1c(I)c(C(=O)NCC(O)CO)c(I)c(C(=O)NCC(O)CO)c1I (centres undefined) ?
Response given: inactive

Challenge: Could you check what this test reported for CN(C)CCC=C1c2ccccc2C(C)(C)c2ccccc21 ?
Response given: inactive

Challenge: Could you check what this test reported for CC[C@]1(O)CC2CN(CCc3c([nH]c4ccccc34)[C@@](C(=O)OC)(c3cc4c(cc3OC)N(C)[C@H]3[C@@](O)(C(N)=O)[C@H](O)[C@]5(CC)C=CCN6CC[C@]43[C@@H]65)C2)C1 (some centres undefined) ?
Response given: inactive

Challenge: Could you check what this test reported for CC1CS(=O)(=O)CCN1/N=C/c1ccc([N+](=O)[O-])o1 (centres undefined) ?
Response given: inactive

Challenge: Could you check what this test reported for Cc1nnc(C(C)C)n1C1C[C@H]2CC[C@@H](C1)N2CC[C@H](NC(=O)C1CCC(F)(F)CC1)c1ccccc1 (some centres undefined) ?
Response given: inactive

Challenge: Could you check what this test reported for CCC(CN)CC(C)CCNCC(O)CNCC(C)CC(CC)CN (centres undefined) ?
Response given: inactive

* * *

Biological target: Aryl hydrocarbon receptor (Homo sapiens)
Experiment: qHTS assay to identify small molecule that activate the aryl hydrocarbon receptor (AhR) signaling pathway (AID 743085); also: nearly all actives have a fitted effect of over 15% in size;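 as to activation: HG2L7.5c1 human HepG2 liver cells with stably integrated DRE-driven firefly reporter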
Conditions: HepG2 AhR-luc (HG2L7.5c1), luciferase, 24 h; series mostly up to 70.3 µM
Inconclusive results are not listed. Activity calls are given as the source filed them. Calls come from the whole dose curve; as a rule, active = well fitted activation curve with a large enough effect in the repeat runs; inconclusive = weak or mixed curves; inactive = no such curve, though single readings can be large or run the other way.
Your answer must be one of the following: 1.0 = active, 0.0 = inactive

Example entries and their recorded answers appear below.
• CC(=O)Nc1c(I)c(C(=O)O)c(I)c(N(C)C(C)=O)c1I = 0.0
• CN1c2c(nc(N)[nH]c2=O)NCC1CNc1ccc(C(=O)NC(CCC(=O)O)C(=O)O)cc1 (stereo not given) = 0.0
• CCCCCCCCCCCCCCCCCC(=O)[O][Al] = 0.0
• CC(=O)[C@@]1(O)CC[C@H]2[C@@H]3C=C(Cl)C4=CC(=O)[C@@H]5C[C@@H]5[C@]4(C)[C@H]3CC[C@@]21C = 0.0
• CC(=O)O[C@H]1C[C@@]2(C)[C@@H](C[C@@H](O)[C@H]3[C@@]4(C)CC[C@@H](O)[C@@H](C)[C@@H]4CC[C@@]32C)/C1=C(\CCC=C(C)C)C(=O)O = 0.0
• O=C1CSC2(CCN(CCCN3c4ccccc4Sc4ccc(Cl)cc43)CC2)N1 = 1.0

Challenge: Could you check what this test reported for Cc1onc(-c2ccccc2)c1C(=O)N[C@@H]1C(=O)N2[C@@H]1SC(C)(C)[C@@H]2C(=O)O ?
Response given: 0.0

Challenge: Could you check what this test reported for CCCCCCCCCCCCCCCCCC[N+](C)(C)CCC[Si](OC)(OC)OC ?
Response given: 0.0

Challenge: Could you check what this test reported for CCOC(=O)C1=C(COCCN)NC(C)=C(C(=O)OC)C1c1ccccc1Cl (stereo not given) ?
Response given: 0.0

Challenge: Could you check what this test reported for NC(=S)N=Nc1ccc(NN=C(N)N)cc1 ?
Response given: 1.0

Challenge: Could you check what this test reported for O=C(COc1ccc(Cl)cc1)OCCNC12CC3CC(CC(C3)C1)C2 ?
Response given: 0.0

Challenge: Could you check what this test reported for O=C(NNCNNC(=O)c1ccncc1)c1ccncc1 ?
Response given: 1.0
